Tested on: THP-1 cells
experimentDescription: TNFα generation assay
Assay type: cell-based, human
cond: Homo sapiens, THP-1, THP-1 cells; Table 22; read-out: IC50 in TNFα generation assay
Entries and their IC50 values follow.

Examples with their reported IC50 follow.
| molecule | reportedProperty | assayResult |
| --- | --- | --- |
| Cn1ccc2c(Nc3nc(N[C@@H]4CCCC[C@@H]4N)c(F)cc3C(N)=O)cncc21 | IC50 | 65 to 130 nM |
| CC(=O)c1cncc(Nc2nc(N[C@@H]3CCCC[C@@H]3N)c(F)cc2C(N)=O)c1 (relative stereo) | IC50 | 65 to 130 nM |
| CC(C)Cn1ccc2c(Nc3nc(N[C@@H]4CCCC[C@@H]4N)c(F)cc3C(N)=O)ccnc21 | IC50 | 65 to 130 nM |
| NC(=O)c1cc(F)c(NC2CCCCC2N)nc1Nc1ccc2nn(Cc3ccccc3)cc2c1 (stereo not shown) | IC50 | 130 to 200 nM |
| C[C@H](N)[C@H](Nc1nc(Nc2cncc(C3CC3)c2)c(C(N)=O)cc1F)C1CC1 | IC50 | 65 to 130 nM |
| COc1ccc(F)c(-c2cncc(Nc3nc(N[C@@H]4CCCC[C@@H]4N)c(F)cc3C(N)=O)c2)c1 (relative stereo) | IC50 | 130 to 200 nM |

Task: // query IC50 value for entry NC(=O)Nc1cccc2cc(Nc3nc(N[C@@H]4CCCC[C@@H]4N)c(F)cc3C(N)=O)cnc12 (relative stereo)
Output: < 65 nM

----------
Entries and their pIC50 values follow.
Tested on: THP-1 cells
experimentDescription: TNFα generation assay
Type: cell-based, human
cond: Homo sapiens, THP-1, THP-1 cells; Table 22; read-out: IC50 in TNFα generation assay
pIC50: −log10 of the molar value.

Examples with their reported pIC50 follow.
| compound | pIC50 |
| --- | --- |
| CCCc1nn(CC(F)F)c2ccc(Nc3nc(N[C@@H]4CCCC[C@@H]4N)c(F)cc3C(N)=O)cc12 | 6.89 to 7.19 |
| CCOc1nccc(Nc2nc(N[C@@H]3CCCC[C@@H]3N)c(F)cc2C(N)=O)c1F | 6.89 to 7.19 |

Task: // query pIC50 value for entry CCn1ncc2cc(Nc3nc(N[C@H](C)[C@H](C)N)c(F)cc3C(N)=O)ccc21 (racemic)
Output: 6.89 to 7.19

Task: // query pIC50 value for entry NC(=O)c1cc(F)c(N[C@@H]2CCCC[C@@H]2N)nc1Nc1ccnc2[nH]ccc12 (relative stereo)
Output: > 7.19

Task: // query pIC50 value for entry C[C@H](N)[C@@H](CC1CC1)Nc1nc(Nc2ccc3c(c2)c(F)nn3CC(F)F)c(C(N)=O)cc1F
Output: 6.89 to 7.19

----------
Entries and their IC50 values follow.
Test system: THP-1 cells
experimentDescription: TNFα generation assay
Assay type: cell-based, human
cond: Homo sapiens, THP-1, THP-1 cells; Table 22; read-out: IC50 in TNFα generation assay

| compound | reportedProperty | assayResult |
| --- | --- | --- |
| CC(C)[C@H](CN)Nc1nc(Nc2ccc3ncccc3c2)c(C(N)=O)cc1F [Example 006-160] | IC50 | 65 to 130 nM |

Task: // query IC50 value for entry CCCc1nn(CCF)c2ccc(Nc3nc(N[C@@H]4CCCC[C@@H]4N)c(F)cc3C(N)=O)cc12 [Example 006-459]
Output: 65 to 130 nM

Task: // query IC50 value for entry CCC[C@@H](Nc1nc(Nc2cnc(C)c(C3CC3)c2)c(C(N)=O)cc1F)[C@H](C)N [Example 006-250]
Output: 130 to 200 nM

Task: // query IC50 value for entry NC(=O)c1cc(F)c(N[C@@H]2CCCC[C@@H]2N)nc1Nc1ccnc2c1ccn2CC(F)(F)F [Example 004-039]
Output: 130 to 200 nM

Task: // query IC50 value for entry NC(=O)c1cc(F)c(N[C@@H]2CCCC[C@@H]2N)nc1Nc1cncc(-c2ccccc2F)c1 (relative stereo) [Example 004-143]
Output: 65 to 130 nM

Task: // query IC50 value for entry NC(=O)c1cc(F)c(NC2CCCCC2N)nc1Nc1ccnc(-c2ccccc2F)c1 (stereo not shown) [Example 002-131]
Output: 65 to 130 nM

Task: // query IC50 value for entry COc1cncc(Nc2nc(N[C@@H]3CCCC[C@@H]3N)c(F)cc2C(N)=O)c1 [Example 004-031]
Output: 130 to 200 nM

Task: // query IC50 value for entry Cc1cncc(Nc2nc(N[C@@H]3CCCC[C@@H]3N)c(F)cc2C(N)=O)c1 [Example 006-103]
Output: < 65 nM

Task: // query IC50 value for entry NC(=O)c1cc(F)c(N[C@@H]2CCCC[C@@H]2N)nc1Nc1ccc2ncccc2c1 [Example 37-3]
Output: < 65 nM

Task: // query IC50 value for entry CCC[C@@H](Nc1nc(Nc2cncc(F)c2)c(C(N)=O)cc1F)[C@H](C)N [Example 006-301]
Output: 65 to 130 nM

Task: // query IC50 value for entry CCOc1ncc(Nc2nc(N[C@@H]3CCCC[C@@H]3N)c(F)cc2C(N)=O)cc1-n1nccn1 [Example 006-495]
Output: 130 to 200 nM

Task: // query IC50 value for entry NC(=O)c1cc(F)c(N[C@@H]2CCCC[C@@H]2N)nc1Nc1cc(N)c2ncccc2c1 (relative stereo) [Example 41-1]
Output: 130 to 200 nM

Task: // query IC50 value for entry COc1cc(Nc2nc(N[C@H](c3ccc(F)cc3)[C@H](C)N)c(F)cc2C(N)=O)ccn1 [Example 006-556]
Output: 65 to 130 nM

Task: // query IC50 value for entry CC(C)C[C@H](CN)Nc1nc(Nc2cccc3ncccc23)c(C(N)=O)cc1F [Example 006-229]
Output: 65 to 130 nM

Task: // query IC50 value for entry NC(=O)c1cc(F)c(NC2CCCCC2N)nc1Nc1cncc(-c2ccccc2)c1 (stereo not shown) [Example 002-001]
Output: < 65 nM

Task: // query IC50 value for entry CC[C@H](N)[C@@H](CC)Nc1nc(Nc2cnc(C)c(-n3nccn3)c2)c(C(N)=O)cc1F [Example 006-380]
Output: 65 to 130 nM

Task: // query IC50 value for entry NC(=O)c1cc(F)c(N[C@@H]2CCCC[C@@H]2N)nc1Nc1cncc(N2CCCC2)c1 (relative stereo) [Example 004-049]
Output: 130 to 200 nM

----------
Entries and their pIC50 values follow.
assaySystem: glutathione S-transferase (GST)-fused full-length human Syk protein (Homo sapiens, UniProt P43405)
Construct: (GST)-fused full-length human Syk protein; GST (glutathione S-transferase); purchased Carna Biosciences
experimentDescription: Syk enzyme assay
Type: biochemical
cond: Syk enzyme assay, Test Example 1; read-out: IC50 of Syk-inhibitory activity
pIC50: −log10 of the molar value.

Examples with their reported pIC50 follow.
| compound | reportedProperty | assayResult |
| --- | --- | --- |
| NC(=O)c1cc(F)c(N[C@@H]2CCCC[C@@H]2N)nc1Nc1ccc2nccn2c1 (relative stereo) | pIC50 | 6.00 to 7.00 |
| NC(=O)c1cc(F)c(N[C@@H]2CCCC[C@@H]2N)nc1Nc1ccc(-n2ccnc2)nc1 | pIC50 | 7.00 to 7.30 |
| NC(=O)c1cc(F)c(NC2CCCCC2N)nc1Nc1cncc(NC(=O)c2cccs2)c1 (stereo not drawn) | pIC50 | > 8.00 |
| CCC[C@@H](Nc1nc(Nc2ccc3c(cnn3CCF)c2)c(C(N)=O)cc1F)[C@H](C)N | pIC50 | > 8.00 |

Task: // query pIC50 value for entry CCn1nc(C(C)C)c2cc(Nc3nc(N[C@H](CC4CC4)[C@H](C)N)c(F)cc3C(N)=O)ccc21
Output: > 8.00

Task: // query pIC50 value for entry COCCOCCOc1cnc2cc(Nc3nc(N[C@@H]4CCCC[C@@H]4N)c(F)cc3C(N)=O)ccc2n1 (relative stereo)
Output: > 8.00

Task: // query pIC50 value for entry COCCNc1ccc(Nc2nc(NC3CCCCC3N)c(F)cc2C(N)=O)cn1 (stereo not drawn)
Output: 7.00 to 7.30

Task: // query pIC50 value for entry NC(=O)c1cc(F)c(N[C@@H]2CCCC[C@@H]2N)nc1Nc1cnc(-n2cccn2)c(-n2ccnn2)c1
Output: 6.00 to 7.00

Task: // query pIC50 value for entry NC(=O)c1cc(F)c(N[C@@H]2CCCC[C@@H]2N)nc1Nc1cncc(F)c1 (relative stereo)
Output: 7.30 to 8.00

Task: // query pIC50 value for entry C[C@H](CN)Nc1nc(Nc2ccc3ncccc3c2)c(C(N)=O)cc1F
Output: > 8.00

Task: // query pIC50 value for entry NC(=O)c1cc(F)c(N[C@@H]2CCCC[C@@H]2N)nc1Nc1ccc2nc(-n3nccn3)ccc2c1 (relative stereo)
Output: > 8.00

Task: // query pIC50 value for entry Cc1cncc(Nc2nc(N[C@H](C)[C@H](C)N)c(F)cc2C(N)=O)c1
Output: 7.30 to 8.00
